Biological target: human PCSK9 / human LDLR EGFa domain interaction (Homo sapiens (Human))
Sequence (Q8NBP7 153-692): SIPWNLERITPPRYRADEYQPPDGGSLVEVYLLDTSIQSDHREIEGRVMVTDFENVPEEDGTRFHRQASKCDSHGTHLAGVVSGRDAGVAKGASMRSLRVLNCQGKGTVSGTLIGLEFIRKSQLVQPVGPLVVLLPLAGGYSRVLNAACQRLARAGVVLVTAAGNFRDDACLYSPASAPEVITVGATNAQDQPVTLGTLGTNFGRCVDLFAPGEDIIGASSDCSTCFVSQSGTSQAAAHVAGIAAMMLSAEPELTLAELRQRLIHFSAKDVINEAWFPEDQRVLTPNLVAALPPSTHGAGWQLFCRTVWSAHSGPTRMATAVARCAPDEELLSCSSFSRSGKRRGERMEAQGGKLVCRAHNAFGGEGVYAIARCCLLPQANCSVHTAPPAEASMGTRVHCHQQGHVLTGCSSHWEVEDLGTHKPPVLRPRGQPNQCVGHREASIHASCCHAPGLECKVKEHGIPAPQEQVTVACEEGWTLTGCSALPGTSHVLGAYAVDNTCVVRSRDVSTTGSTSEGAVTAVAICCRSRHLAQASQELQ
Sequence (Q8NBP7 31-152 partner): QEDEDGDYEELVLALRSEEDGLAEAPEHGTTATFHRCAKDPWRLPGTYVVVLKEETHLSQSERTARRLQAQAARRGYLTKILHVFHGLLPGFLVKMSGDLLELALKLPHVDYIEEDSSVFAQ
Test: TR-FRET assay of inhibition of the PCSK9-LDLR protein-protein interaction
Type: binding
Settings: TR-FRET, 20 nM human PCSK9, 20 nM human LDLR EGFa domain, 2 hours room temperature; read-out: IC50
Starred links: 1 amine or outer side, 2 acyl side, 3 side chain; linkers in the order of their positions; H or OH if unused. Positions of bridges follow the written chain, without caps; N, C: chain ends. Non-standard residues stand in square brackets, D forms with d. Residues, ends and D or L forms follow the SMILES beside them. Trp(5-F) = N[C@@H](Cc1c[nH]c2ccc(F)cc12)C(=O)O; NMePhe(4-F) = CN[C@@H](Cc1ccc(F)cc1)C(=O)O; NMeW = CN[C@@H](Cc1c[nH]c2ccccc12)C(=O)O; mXylylene = c1cc(C[*:1])cc(C[*:2])c1; NMeY = CN[C@@H](Cc1ccc(O)cc1)C(=O)O; NMeA = CN[C@@H](C)C(=O)O; Mpa = O=C(O)CCS; Sar = CNCC(=O)O
ENDPOINT NAME: IC50

MOLECULE | ENDPOINT NAME | MEAS VALUE
CC(=O)N[C@@H](Cc1cnc[nH]1)C(=O)N(C)[C@@H](Cc1ccc(F)cc1)C(=O)N[C@H]1CSCc2cccc(c2)CSC[C@@H](C(N)=O)NC(=O)[C@@H]2CCCN2C(=O)[C@H](Cc2ccc(O)cc2)NC(=O)[C@H](Cc2cnc[nH]2)NC(=O)[C@H](CC(=O)O)NC(=O)[C@H](Cc2c[nH]c3ccc(F)cc23)NC(=O)[C@H](Cc2c[nH]c3ccc(F)cc23)NC(=O)CNC(=O)[C@H](CCCCN)NC1=O [Compound 146] (Ac-H[NMePhe(4-F)]CKG[Trp(5-F)][Trp(5-F)]DHYPC-NH2; linker 3-12 via mXylylene) | IC50 | 0.0001 to 0.1 µM
NCCCC[C@@H]1NC(=O)CCSCc2cccc(c2)CSC[C@@H](C(N)=O)NC(=O)[C@@H]2CCCN2C(=O)[C@H](Cc2ccc(O)cc2)NC(=O)[C@H](Cc2c[nH]cn2)NC(=O)[C@H](CC(=O)O)NC(=O)[C@H](Cc2c[nH]c3ccc(F)cc23)NC(=O)[C@H](Cc2c[nH]c3ccc(F)cc23)NC(=O)CNC1=O [Compound 149] ([Mpa]KG[Trp(5-F)][Trp(5-F)]DHYPC-NH2; linker 1-10 via mXylylene) | IC50 | 1 to 12.1 µM

# next molecule below
Exercise: GET /values?readout=IC50&system=human PCSK9 / human LDLR EGFa domain interaction (Homo sapiens (Human))&item= C[C@H]1C(=O)N(C)[C@@H](Cc2ccc(O)cc2)C(=O)N2CCC[C@H]2C(=O)N[C@H](C(N)=O)CSCc2cccc(c2)CSCCC(=O)N[C@@H](CCCCN)C(=O)N(C)CC(=O)N(C)[C@@H](Cc2c[nH]c3ccccc23)C(=O)N[C@@H](Cc2c[nH]c3ccccc23)C(=O)N[C@@H](CC(=O)O)C(=O)N1C [Compound 015] ([Mpa]K[Sar][NMeW]WD[NMeA][NMeY]PC-NH2; linker 1-10 via mXylylene)
Key: 1 to 12.1 µM
